Test system: HOP-62 NSCLC
Assay remarks: NCI-60 one-dose screen, 48 h
Assay conditions: 10 µM unless noted
About 83,000 compounds went through this panel and 20% of them were active in at least one assay; those are over-represented in the sample as a whole. Active and inactive are the calls of the source. How the source made its calls: active means growth percent below 10; inactive means the rest.
Outcome (select one): 1 = active, 0 = inactive

Some entries whose results are on file:
Compound: N#CCCc1c[nH]c2ccccc12
Target entity: HOP-62 NSCLC
Group: 0
--
Compound: O=C(CCCSc1nc(-c2ccccc2)cc(-c2ccccc2)n1)NO
Target entity: HOP-62 NSCLC
Group: 1
--
Compound: CCOc1ccccc1/C=N\Nc1ccc(S(=O)(=O)c2ccc(N/N=C/c3ccccc3OCC)cc2)cc1
Target entity: HOP-62 NSCLC
Group: 0
--
Compound: COc1cc(OC)c(/C=C/C(=O)c2c(N)cc(OC)cc2OC)c(OC)c1
Target entity: HOP-62 NSCLC
Group: 0
--
Compound: CCOC(=O)c1nn(C2CCCCO2)c2ccc(NC(=O)CN3CCCC3)cc12 (centres undefined)
Target entity: HOP-62 NSCLC
Group: 0
--
Compound: COC(=O)[C@]1(C)CC[C@]2(C)CC[C@]3(C)C(=CC(=O)[C@@H]4[C@@]5(C)CCC(=O)NC(C)(C)[C@@H]5CC[C@]43C)[C@@H]2C1
Target entity: HOP-62 NSCLC
Group: 1
--
Compound: C=C(C)[C@@H]1CC[C@]2(C)[C@H](CC[C@@H]3[C@@H]([C@@](C)(O)CCC=C(C)C)CC[C@]32C)[C@@]1(C)CCC(=O)N1CCN(C)CC1
Target entity: HOP-62 NSCLC
Group: 1
--
Compound: O=C1Nc2ccccc2/C1=C/C(=O)c1ccc(N2CCOCC2)cc1
Target entity: HOP-62 NSCLC
Group: 0

Exercise: Assay result, entry C[C@H]1[C@H](C)CC[C@]2(C(=O)O)CC[C@]3(C)C(=CC[C@@H]4[C@@]5(C)C/C(=C/c6cccnc6)[C@H](O)C(C)(C)[C@@H]5CC[C@]43C)[C@H]12 — outcome?
Key: 1

Exercise: Assay result, entry N#Cc1ccc(-c2ccc(COc3ccc(CC4SC(=O)NC4=O)cc3)cc2)cc1 (centres undefined) — outcome?
Key: 0

Exercise: Assay result, entry CCOC(=O)Nc1ccc2c(c1)/C(=N\NC(=S)NC)c1ccccc1-2 — outcome?
Key: 0

Exercise: Assay result, entry Cc1ccc2c(n1)C(=O)C(Cl)=C(Nc1ccc(N3CCN(C)CC3)cc1)C2=O — outcome?
Key: 0

Exercise: Assay result, entry CC1(C)CC(=O)c2c(ccc(C(=O)C[C@@H](N)CO)c2N)O1 — outcome?
Key: 1

###

Tested on: CCRF-CEM leukemia
Assay remarks: NCI-60 one-dose screen, 48 h
Assay conditions: 10 µM unless noted
This is part of a sample that, as a whole, favours compounds with a hit. Of some 83,000 tested, about 20% had one in any assay. Active and inactive are the calls of the source. The calls were made as follows: active = growth percent below 10; inactive = the rest.
Outcome (select one): active, inactive

Some entries whose results are on file:
Compound: COc1cc2c(cc1OCCCCCOc1ccc(-n3c(C)nc4ccccc4c3=O)cc1)N=C[C@@H]1CCCN1C2=O
Target entity: CCRF-CEM leukemia
Group: active
//
Compound: Nc1nc(N)c2c(n1)NC(c1ccc(F)cc1)C1CCc3ccccc3C1=N2 (stereo unspecified)
Target entity: CCRF-CEM leukemia
Group: inactive
//
Compound: COc1ccc(C(=O)CCC(=O)O)cc1
Target entity: CCRF-CEM leukemia
Group: inactive

Exercise: Assay result, entry CSc1nc2sc3cc(Cl)c(Cl)cc3n2c(=N)c1C#N — outcome?
Key: inactive

Exercise: Assay result, entry O=C1NC(=O)C(Cc2ccc(OCc3ccc(-c4cc(F)c(F)c(F)c4)cc3)cc2)S1 (stereo unspecified) — outcome?
Key: inactive

Exercise: Assay result, entry CCCSc1nc(N)nc2nc[nH]c12 — outcome?
Key: inactive

Exercise: Assay result, entry COc1cc(NN=C(c2ccc(O)cc2)c2ccc(O)cc2)c([N+](=O)[O-])cc1[N+](=O)[O-] — outcome?
Key: inactive

###

Test system: MDA-MB-435 melanoma
Assay remarks: NCI-60 one-dose screen, 48 h (100 = growth as untreated, 0 = no growth, -100 = all killed)
Assay conditions: 10 µM unless noted
This is part of a sample that, as a whole, favours compounds with a hit. Of some 83,000 tested, about 20% had one in any assay.
Quantity kind: growth (%)
One number for each entry, in %.

Worked examples follow.
Compound: COc1ccc(C(=O)/C=C/c2ccccn2)c(O)c1
Quantity kind: growth
Number: 77.3
--
Compound: O=C1/C(=C\c2cccn2Cc2ccccc2)c2ccccc2N1c1c(Cl)cccc1Cl
Quantity kind: growth
Number: 91
--
Compound: COc1ccc2nc3c(cc2c1)C(=O)CC(c1ccccc1)C3 (stereo not given)
Quantity kind: growth
Number: -67.7
--
Compound: COCCCNc1nc(NC(=O)c2cc(Br)cc(C(F)(F)F)c2)cc(-c2cccnc2)n1
Quantity kind: growth
Number: 88.4

API: the following record is the query input.
Exercise: Lab note: MDA-MB-435 melanoma assay, enter growth for Cc1ccccc1-n1nnc(C(=O)Nc2nc3ccc(F)cc3s2)c1C here
Key: 59.2

###

System: OVCAR-3 ovarian
Assay remarks: NCI-60 one-dose screen, 48 h (100 = growth as untreated, 0 = no growth, -100 = all killed)
Assay conditions: 10 µM unless noted
Method: Growth inhibition of the OVCAR-3 human tumor cell line is measured as a screen for anti-cancer activity. Cells are grown in 96 well plates and exposed to the test compound for 48 hours. Compounds are tested at a single concentration, which is 10^-5 M for most compounds. The reported endpoint is percent growth (GI% or GIPRCNT), where numbers from 0 - 100% represent growth inhibition, and numbers from -100% - 0 represent cell death. For example, a value of 40 represents 60% growth inhibition. […]
The panel holds about 83,000 compounds, 20% with a hit somewhere; the sample as a whole holds those more often. Active and inactive are the calls of the source. The calls were made as follows: active = growth percent below 10; inactive = the rest.
Exercise: for every item that follows, state its recorded growth.

Molecule: Nc1ccc2c(c1)Cc1cc(NC(=O)C(F)(F)F)ccc1-2
Target entity: OVCAR-3 ovarian
growth: 99.5% (inactive)
//
Molecule: N#Cc1c(Cl)nc(SCC2CO2)nc1-c1ccccc1 (configuration not stated)
Target entity: OVCAR-3 ovarian
growth: 137% (inactive)
//
Molecule: C=C(C)[C@@H]1CC[C@]2(C(=O)N3CCN(C)CC3)CC[C@]3(C)[C@H](CC[C@@H]4[C@@]5(C)C/C(=C/c6ccncc6)[C@H](O)C(C)(C)[C@@H]5CC[C@]43C)[C@@H]12
Target entity: OVCAR-3 ovarian
growth: -50% [100 µM] (active)
//
Molecule: CC(C)(C)c1cc(C(=O)Nc2cc3ccccc3cc2C(=O)NCCN)cc(C(C)(C)C)c1
Target entity: OVCAR-3 ovarian
growth: -96% (active)
//
Molecule: Nc1nc(N)c2c(n1)NC(c1ccc(F)cc1)C1CCc3ccccc3C1=N2 (configuration not stated)
Target entity: OVCAR-3 ovarian
growth: 48.2% (inactive)

Provide each entry's growth from the list below.
1. O=C1CN(Cc2ccc(C(=O)NO)cc2)C(=O)[C@@H](Cc2ccccc2)N1
2. O=C(CSc1nccc(Nc2ccc(S(=O)(=O)Nc3ccccn3)cc2)n1)c1ccc(Cl)cc1

Key:
109% (inactive)
95.8% (inactive)

###

System: M14 melanoma
Assay remarks: NCI-60 one-dose screen, 48 h
Assay conditions: 10 µM unless noted
The panel holds about 83,000 compounds, 20% with a hit somewhere; the sample as a whole holds those more often. Active and inactive are the calls of the source. Rule for the calls: active = growth percent below 10; inactive = the rest.
Outcome (select one): active, inactive

Molecule: O=C(Nc1cc(F)cc2cccnc12)c1cnc(N2CCNCC2)cn1
Group: inactive

Exercise: Assay result, entry CC[C@]12C=CCN3CC[C@@]4(c5ccc(OC)cc5N(C)[C@H]4[C@@](O)(C(=O)OC)[C@@H]1OC(=O)CCC(=O)O[C@H]1CC[C@H]4[C@@H]5CCC6=CC(=O)CC[C@@H]6[C@H]5CC[C@]14C)[C@@H]32 — outcome?
Key: active

Exercise: Assay result, entry CC(C)CCNCC(C)(C)O — outcome?
Key: inactive

Exercise: Assay result, entry COC(=O)c1cc2c(=O)[nH]cc3c2c(n1)CCC3 — outcome?
Key: inactive

Exercise: Assay result, entry COc1ccc(N(c2nc(-c3ccc([N+](=O)[O-])cc3)cs2)C(C)C)cc1 — outcome?
Key: inactive

Exercise: Assay result, entry Cc1cc(N2CCCCCC2)nc(N2CCN(CC(=O)Nc3ccc4c(ccn4Cc4ccccc4)c3)CC2)n1 — outcome?
Key: inactive

Exercise: Assay result, entry COc1ccc(C(=O)CSc2nccc(Nc3ccc(C(=O)O)cc3)n2)cc1 — outcome?
Key: inactive

Exercise: Assay result, entry C#CC(OC(=O)N(C)C)(c1ccccc1)c1ccc(F)cc1 (centres undefined) — outcome?
Key: inactive

Exercise: Assay result, entry CNC(=O)c1cc(Oc2ccc3nc(NC(=O)c4ccc5ncccc5c4)sc3c2)ccn1 — outcome?
Key: inactive

Exercise: Assay result, entry C=CCc1nc2ccccc2s1 — outcome?
Key: inactive
